The reported measurements were obtained from ChEMBL document CHEMBL2380255.

Organism: Homo sapiens
Experiment: Selectivity ratio of Ki for human recombinant adenosine A3 receptor to Ki for human recombinant adenosine A2A receptor
Quick reference: Ratio Ki of the listed items.

// lookup Ratio Ki for COc1cccc(/C=C/C(=O)Nc2nc3ccccc3c(=O)s2)c1 > 16

// lookup Ratio Ki for O=C(CCCc1ccccc1)Nc1nc2ccccc2c(=O)s1 > 25

// lookup Ratio Ki for O=C(Nc1nc2ccccc2c(=O)s1)c1ccc(C(=O)N2CCN(Cc3ccc(Cl)cc3)CC2)cc1 > 22

* * *

Target: Adenosine receptor A2b (Homo sapiens, UniProt P29275)
Sequence (P29275 whole entry): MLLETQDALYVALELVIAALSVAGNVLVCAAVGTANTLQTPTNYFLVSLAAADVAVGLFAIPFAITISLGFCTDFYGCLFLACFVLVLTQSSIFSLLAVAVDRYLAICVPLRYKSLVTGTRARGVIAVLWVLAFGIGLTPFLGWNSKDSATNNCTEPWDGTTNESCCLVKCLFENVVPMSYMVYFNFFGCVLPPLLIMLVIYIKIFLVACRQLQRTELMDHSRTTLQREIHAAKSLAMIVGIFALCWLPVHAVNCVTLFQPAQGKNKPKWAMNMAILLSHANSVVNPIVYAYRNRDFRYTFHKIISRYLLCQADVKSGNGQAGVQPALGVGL
Assay: Displacement of [3H]PSB-603 from human recombinant adenosine A2B receptor expressed in CHO cells after 75 mins by liquid scintillation counting analysis
measuredProperty: Ki

Reference set (5 entries):
> print(dat)
                               samplesmiles  measuredproperty     result
1  O=C(C/C=C/c1cccc(Cl)c1)Nc1nc2ccccc2c(=O)s1                Ki  > 1000 nM
2  O=C(CCCc1ccc(Cl)c(Cl)c1)Nc1nc2ccccc2c(=O)s1                Ki  > 1000 nM
3      O=C(CCc1ccccc1Br)Nc1nc2ccccc2c(=O)s1                Ki  > 1000 nM
4  O=C(/C=C/c1cccc(Cl)c1)Nc1nc2ccccc2c(=O)s1                Ki  > 1000 nM
5    O=C(C/C=C/c1ccccc1)Nc1nc2ccccc2c(=O)s1                Ki     119 nM

Next:
// lookup Ki for COc1cccc(/C=C/CC(=O)Nc2nc3ccccc3c(=O)s2)c1 ≥ 1000 nM

* * *

Below are compounds with their pKi as measured on UniProtKB P30543.
Sequence (P30543 whole entry): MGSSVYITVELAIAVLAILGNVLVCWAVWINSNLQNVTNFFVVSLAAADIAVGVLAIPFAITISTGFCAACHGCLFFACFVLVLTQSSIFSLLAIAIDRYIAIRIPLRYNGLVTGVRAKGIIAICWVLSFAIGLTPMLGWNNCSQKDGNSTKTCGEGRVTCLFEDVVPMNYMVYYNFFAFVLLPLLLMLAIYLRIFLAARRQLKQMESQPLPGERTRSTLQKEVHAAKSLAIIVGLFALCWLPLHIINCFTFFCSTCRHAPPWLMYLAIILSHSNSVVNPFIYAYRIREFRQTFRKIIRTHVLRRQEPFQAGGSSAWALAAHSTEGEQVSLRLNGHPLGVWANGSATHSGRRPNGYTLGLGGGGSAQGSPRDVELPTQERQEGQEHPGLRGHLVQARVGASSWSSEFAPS
pKi: −log10 of the molar value.

> print(dat)
                                 compound  result
1      O=C(CCCc1ccccc1)Nc1nc2ccsc2c(=O)s1  < 5.00
2  CN(C(=O)CCCc1ccccc1)c1nc2ccccc2c(=O)s1  < 5.00
3  Cc1sc2nc(NC(=O)CCCc3ccccc3)sc(=O)c2c1C  < 5.00

Form: Entry = O=C(COc1cccc(Cl)c1)Nc1nc2ccccc2c(=O)s1 | System = UniProtKB P30543 | pKi = ____ < 5.00

Form: Entry = COCCOc1ccc(N2CCN(CCn3ncc4c3nc(N)n3nc(-c5ccco5)nc43)CC2)cc1 [PRELADENANT] | System = UniProtKB P30543 | pKi = ____ 9.18

* * *

Quick reference: pKi of the listed items.
Biological target: Adenosine receptor A2b (Homo sapiens)
Experiment: Displacement of [3H]PSB-603 from human recombinant adenosine A2B receptor expressed in CHO cells after 75 mins by liquid scintillation counting analysis
Format: cell-based
pKi: −log10 of the molar value.

Reference set (2 entries):
> print(dat)
                              samplesmiles  result
1  O=C(CCCc1ccccc1)Nc1nc2cc(Cl)ccc2c(=O)s1  < 6.00
2  O=C(CCCc1cccc(Cl)c1)Nc1nc2ccccc2c(=O)s1  ≤ 6.00

// lookup pKi for O=C(Nc1nc2ccccc2c(=O)s1)c1ccc(C(=O)N2CCN(Cc3ccc(Cl)cc3)CC2)cc1 < 6.00

* * *

Target: Adenosine receptor A3 (Homo sapiens)
Sequence (P0DMS8 whole entry): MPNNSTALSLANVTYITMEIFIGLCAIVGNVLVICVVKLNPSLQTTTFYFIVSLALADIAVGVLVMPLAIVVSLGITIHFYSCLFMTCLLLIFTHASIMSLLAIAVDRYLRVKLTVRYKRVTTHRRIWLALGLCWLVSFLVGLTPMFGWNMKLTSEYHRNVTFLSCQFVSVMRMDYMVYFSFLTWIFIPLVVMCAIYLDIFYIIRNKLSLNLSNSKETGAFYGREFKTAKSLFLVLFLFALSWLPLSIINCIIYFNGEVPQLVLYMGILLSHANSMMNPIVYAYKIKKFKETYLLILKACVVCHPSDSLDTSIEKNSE
Assay: Displacement of [3H]PSB-11 from human recombinant adenosine A3 receptor expressed in CHO cells after 60 mins by liquid scintillation counting analysis
Assay type: cell-based
pKi: −log10 of the molar value.
measuredProperty: pKi

> print(dat)
                               samplesmiles                          testedsystem  measuredproperty  result
1  O=C(C/C=C/c1cccc(Cl)c1)Nc1nc2ccccc2c(=O)s1  Adenosine receptor A3 (Homo sapiens)               pKi  < 6.00
2        O=C(CCCc1ccccc1)Nc1nc2sccc2c(=O)s1  Adenosine receptor A3 (Homo sapiens)               pKi  < 6.00
3   O=C(CCCc1ccccc1)Nc1nc2cc(Cl)ccc2c(=O)s1  Adenosine receptor A3 (Homo sapiens)               pKi    7.04

// lookup pKi for O=C(Nc1nc2ccccc2c(=O)s1)c1ccc(C(=O)N2CCN(Cc3ccccc3Cl)CC2)cc1 < 6.00

// lookup pKi for O=C(CCc1ccc(Cl)c(Cl)c1)Nc1nc2ccccc2c(=O)s1 < 6.00

// lookup pKi for COc1cccc(/C=C/C(=O)Nc2nc3ccccc3c(=O)s2)c1 < 6.00

* * *

Species: Homo sapiens
Assay: Selectivity ratio of Ki for human recombinant adenosine A2B receptor to Ki for human recombinant adenosine A2A receptor
measuredProperty: Ratio Ki

(P) COc1cccc(CCC(=O)Nc2nc3ccccc3c(=O)s2)c1
(Q) COc1cccc(/C=C/C(=O)Nc2nc3ccccc3c(=O)s2)c1
Given the listed records, identify the one among P and Q with higher Ratio Ki. Output the label that corresponds to your choice. Q
(Q: 10, P: 4)

* * *

Target: Adenosine receptor A1 (Homo sapiens, UniProt P30542)
Sequence (P30542 whole entry): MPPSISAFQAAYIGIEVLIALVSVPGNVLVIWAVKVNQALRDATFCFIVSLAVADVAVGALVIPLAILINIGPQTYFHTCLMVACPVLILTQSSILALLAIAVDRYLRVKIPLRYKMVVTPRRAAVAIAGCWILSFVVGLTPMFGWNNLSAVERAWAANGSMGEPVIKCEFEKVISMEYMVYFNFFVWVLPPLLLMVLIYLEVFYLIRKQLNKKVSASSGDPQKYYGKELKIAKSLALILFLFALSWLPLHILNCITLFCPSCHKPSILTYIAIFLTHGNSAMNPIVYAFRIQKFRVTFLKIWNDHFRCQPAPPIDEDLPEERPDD
Assay: Displacement of [3H]CCPA from human recombinant adenosine A1 receptor expressed in CHO cells after 90 mins by liquid scintillation counting analysis
Type: cell-based
measuredProperty: Ki

Reference set (4 entries):
> print(dat)
                               samplesmiles   result
1  COc1cccc(/C=C/C(=O)Nc2nc3ccccc3c(=O)s2)c1  > 10 µM
2  Cn1c(=O)c2c(nc(/C=C/c3cccc(Cl)c3)n2C)n(C)c1=O  > 10 µM
3  O=C(Nc1nc2ccccc2c(=O)s1)c1ccc(C(=O)N2CCN(Cc3ccccc3Cl)CC2)cc1   > 1 µM
4  O=C(Nc1nc2ccccc2c(=O)s1)c1ccc(C(=O)N2CCN(Cc3cccc(Cl)c3)CC2)cc1   > 1 µM

Next:
// lookup Ki for O=C(CCCc1cccc(Cl)c1)Nc1nc2ccccc2c(=O)s1 > 10 µM

* * *

Molecular target: Adenosine receptor A3 (Homo sapiens, UniProt P0DMS8)
Experiment: Displacement of [3H]PSB-11 from human recombinant adenosine A3 receptor expressed in CHO cells after 60 mins by liquid scintillation counting analysis
Type: cell-based
Quick reference: Ki of the listed items.

> print(dat)
                                  molecule                              testedsystem  measuredproperty    result
1      O=C(CCc1ccccc1F)Nc1nc2ccccc2c(=O)s1  Adenosine receptor A3 (Homo sapiens, UniProt P0DMS8)                Ki    ≥ 1 µM
2      O=C(CCCc1ccccc1)Nc1nc2ccccc2c(=O)s1  Adenosine receptor A3 (Homo sapiens, UniProt P0DMS8)                Ki    > 1 µM
3  O=C(CCCc1ccccc1)Nc1nc2ccc(Br)cc2c(=O)s1  Adenosine receptor A3 (Homo sapiens, UniProt P0DMS8)                Ki    > 1 µM
4   O=C(C/C=C/c1ccccc1)Nc1nc2ccccc2c(=O)s1  Adenosine receptor A3 (Homo sapiens, UniProt P0DMS8)                Ki  0.158 µM

// lookup Ki for COc1cccc(CCC(=O)Nc2nc3ccccc3c(=O)s2)c1 0.173 µM

// lookup Ki for COc1cccc(C#CC(=O)Nc2nc3ccccc3c(=O)s2)c1 > 1 µM

// lookup Ki for O=C(Nc1nc2ccccc2c(=O)s1)c1ccc(C(=O)N2CCN(Cc3ccc(Cl)cc3)CC2)cc1 > 1 µM

// lookup Ki for O=C(CCCc1ccccc1)Nc1nc2ccc(Cl)cc2c(=O)s1 > 1 µM

* * *

Quick reference: Ratio Ki of the listed items.
Organism: Homo sapiens
Assay: Selectivity ratio of Ki for human recombinant adenosine A2B receptor to Ki for human recombinant adenosine A2A receptor

Reference set (2 entries):
> print(dat)
                               samplesmiles  result
1  O=C(Nc1nc2ccccc2c(=O)s1)c1ccc(C(=O)N2CCN(Cc3ccc(Cl)cc3)CC2)cc1    > 22
2       O=C(CCCc1ccccc1)Nc1nc2ccccc2c(=O)s1    > 25

Next:
// lookup Ratio Ki for O=C(CCCc1ccccc1)Nc1nc2sccc2c(=O)s1 4

* * *

Biological target: UniProt:P0DMS8
Experiment: Displacement of [3H]PSB-11 from human recombinant adenosine A3 receptor expressed in CHO cells after 60 mins by liquid scintillation counting analysis
Type: cell-based
pKi: −log10 of the molar value.
measuredProperty: pKi

> print(dat)
                               samplesmiles  measuredproperty  result
1      O=C(CCc1ccccc1Br)Nc1nc2ccccc2c(=O)s1               pKi  < 6.00
2  COCCOc1ccc(N2CCN(CCn3ncc4c3nc(N)n3nc(-c5ccco5)nc43)CC2)cc1               pKi  < 6.00

Next:
// lookup pKi for O=C(CCCc1ccc(Cl)c(Cl)c1)Nc1nc2ccccc2c(=O)s1 < 6.00
